# Assayed System: Concanavalin-A (Canavalia ensiformis) (UniProt P02866)
# Sequence (P02866 whole entry, looked up): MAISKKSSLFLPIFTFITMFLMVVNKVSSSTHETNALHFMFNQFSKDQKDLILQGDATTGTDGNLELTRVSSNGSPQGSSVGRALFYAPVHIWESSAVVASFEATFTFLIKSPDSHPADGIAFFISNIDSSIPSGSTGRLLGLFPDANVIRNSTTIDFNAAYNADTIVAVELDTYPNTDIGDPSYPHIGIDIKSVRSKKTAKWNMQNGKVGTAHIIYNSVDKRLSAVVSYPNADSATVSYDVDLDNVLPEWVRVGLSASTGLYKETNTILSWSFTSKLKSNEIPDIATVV
# Run Description: ConA small-molecule binders, primary screen, artefact control for SMM control protein annotation, biochemical, small-molecule microarray, Alexa647 label, 635 nm (AID 1127);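 further: z combines 667 nm emission intensity with signal-to-noise across three replicate slides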
# Measurement Context: ConA-A647 binding fluorescence, higher = more signal
Each record here notes measured composite z-score.
Assay Metric: composite z-score

COC(=O)[C@H](C)NC(=O)CCC1CC(OC(=O)NCc2cccc3ccccc23)CC2(CCCC(COC(=O)NCc3cccc(C(F)(F)F)c3)O2)O1 (some centres not stated); 1.12
CC1(C)O[C@H]2O[C@H]([C@H](O)CON=C3[C@H]4CCn5c(=O)n(-c6ccccc6)c(=O)n5[C@H]4[C@H](O)[C@@H]4O[C@H]34)[C@H](O)[C@H]2O1; 0.444
C[C@@H]1C=CCC(=O)OC[C@H](C)C(=O)N[C@@H](Cc2ccccc2)C(=O)OC1; 0.12
CC(C)=CCCC(C)=CCON=C1C[C@@H](O)[C@@H](O)[C@@H]2[C@@H]3C(=O)N(Cc4ccc5c(c4)OCO5)C(=O)[C@@H]3CC[C@@H]12; 0.959
C[C@@H]1CC[C@H]2C(=O)OC(CN3C(=O)c4ccccc4C3=O)CN2[C@H]1c1ccc(Br)cc1 (some centres not stated); 0.781
O=C1C2=CC[C@H]3C(=O)N(Cc4ccccc4)C(=O)[C@H]3[C@H]2[C@H](O)[C@@H]2O[C@H]12; -0.707
CCOC(=O)[C@H](CC(C)C)NC(=O)CCC1CC(OC(=O)NCCc2ccc(F)cc2)CC2(CCCC(COC(=O)NCc3cccc4ccccc34)O2)O1 (some centres not stated); 0.873

====

# Run Description: PSAC antagonists in infected red cells, primary screen, cell-based, P. falciparum Indochina, OD700, 1 h (AID 1154)
# Measurement Context: P. falciparum Indochina infected RBC osmotic lysis, higher = more signal, called active from +8 up or from −8 down
Each record here notes measured z-score.
Assay Metric: z-score

O=C1C2=CC[C@H]3C(=O)N(c4ccc(F)cc4F)C(=O)[C@H]3[C@H]2[C@H](O)[C@@H]2O[C@H]12; -0.487
C=CCOCC1CN2[C@@H](CC[C@@H](C)[C@@H]2c2ccc(Br)cc2)C(=O)O1 (some centres undefined); 0.517
CCCC[C@H]1CN2[C@@H](CC[C@@H](C)[C@@H]2c2ccc(Br)cc2)C(=O)O1; 2.91
CCOC(=O)[C@H](Cc1ccccc1)NC(=O)CCC1CC(OC(=O)NCCc2ccc(F)cc2)CC2(CCCC(COC(=O)NCc3cccc(C(F)(F)F)c3)O2)O1 (some centres undefined); -1.14
CCOC(=O)[C@H](CC(C)C)NC(=O)CCC1CC(OC(=O)NCc2ccc3c(c2)OCO3)CC2(CCCC(COC(=O)NCCc3ccc(Cl)cc3)O2)O1 (some centres undefined); 1.83
CCOC(=O)[C@H](CC(C)C)NC(=O)CCC1CC(OC(=O)NCc2ccc3c(c2)OCO3)CC2(CCCC(COC(=O)NCCOc3ccccc3)O2)O1 (some centres undefined); 0.339
CCN1C(=O)[C@H]2[C@H]3[C@H](O)[C@H](O)CC(=NO[C@@H]4O[C@H](COC(C)=O)[C@@H](OC(C)=O)[C@H](OC(C)=O)[C@H]4OC(C)=O)[C@@H]3CC[C@H]2C1=O; 0.202
CC(=O)OC[C@H]1O[C@@H](ON=C2[C@H]3CCn4c(=O)n(-c5ccccc5)c(=O)n4[C@H]3[C@H](O)[C@@H]3O[C@H]23)[C@H](OC(C)=O)[C@@H](OC(C)=O)[C@@H]1OC(C)=O; 0.597
O=C1CCCC=C1C(O)C1CCCCC1 (centres undefined); -0.0549
CCN1C(=O)[C@H]2[C@H]3[C@H](O)[C@H](O)CC(=NOC(C)CN4CCCc5nc(C)c(C)cc54)[C@@H]3CC[C@H]2C1=O (some centres undefined); 1.25
O=C1[C@H]2[C@H]3[C@H](O)[C@H](O)CC(=NO[C@@H]4O[C@H](CO)[C@@H](O)[C@H](O)[C@H]4O)[C@@H]3CC[C@H]2C(=O)N1C[C@@H]1CCCO1; 0.377
C[C@H]1CC[C@@H](C(=O)O)N[C@@H]1c1ccc(C#Cc2ccccc2)cc1; 0.0311
CC1(C)O[C@H]2O[C@H]([C@H](O)CON=C3[C@H]4CCn5c(=O)n(-c6ccccc6)c(=O)n5[C@H]4[C@H](O)[C@@H]4O[C@H]34)[C@H](O)[C@H]2O1; 0.246
C#CCCCON=C1C[C@@H](O)[C@@H](O)[C@@H]2[C@@H]3C(=O)N(CC)C(=O)[C@@H]3CC[C@H]12; 0.129
